Entry source: PubChem BioAssay AID1159580

- procedureDetails: chemical genetic growth profiling, strain panel (AID 1159580);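 also: tested at 20 µM; growth read once vehicle control cultures reached saturation at 30 °C; 1 = growth at the plate median or of vehicle wells; lower values mean less growth of the strain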
- statedConditions: S. cerevisiae deletion strains, growth OD, locus YAL026C, strain drs2, active compounds read low
Out of some 5,500 compounds screened, about 2,000 (36%) were called active. Roughly 18% stayed inconclusive and do not appear here. The list shows a part of the results.
Lab note: cut-off is 1. Strictly less in normalized growth is YES. Exactly 1 or more is NO.

Known results for compounds:
{"columns": ["compound", "qualitativeLabel"],
 "data": [
  ["NC(Cc1ccc(F)cc1)C(=O)O (configuration not stated)", "NO"],
  ["COC(=O)CCCOc1ccc(Cl)cc1Cl", "YES"]
]}

// query Say whether its normalized growth is strictly beneath 1. Entry: CC(=O)OCC(=O)[C@@]1(O)[C@H](OC(C)=O)CC2C3CCC4=CC(=O)C=C[C@]4(C)[C@@]3(F)[C@@H](O)C[C@@]21C (some centres not stated)
// result YES

// query Say whether its normalized growth is strictly beneath 1. Entry: CN(C)CCOC(=O)C(c1ccccc1)C1(O)CCCC1 (configuration not stated)
// result NO

// query Say whether its normalized growth is strictly beneath 1. Entry: `CN(C)CCOC(=O)COc1ccc(Cl)cc1`
// result YES

---

- procedureDetails: chemical genetic growth profiling, strain panel (AID 1159580);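 also: tested at 20 µM; growth read once vehicle control cultures reached saturation at 30 °C; 1 = growth at the plate median or of vehicle wells; lower values mean less growth of the strain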
- statedConditions: S. cerevisiae deletion strains, growth OD, locus YNL307C, strain MCK1, active compounds read low
About 2,000 (36%) of roughly 5,500 compounds were called active. About 18% were inconclusive and are not listed. Some of the results follow.
propertyMeasured: normalized growth
Format: numeric value only, no unit, no commentary.

Here is how some molecules turned out for normalized growth.
{"columns": ["molecule", "normalized growth"],
 "data": [
  ["CC12CC3CC(C)(C1)CC(N)(C3)C2", 1.01],
  ["N[C@@H]1[C@@H](O)[C@H](O)[C@@H](CO)O[C@H]1O", 1.01],
  ["Clc1ccc2c(c1)C(N1CCNCC1)=Nc1ccccc1O2", 0.983]
]}

// query Let me know recorded normalized growth for `Cc1cc(O)c(C)c2c1C(=O)Oc1c(C)c(O)c(C(=O)O)c(C)c1O2` , thanks.
// result 0.972

---

- procedureDetails: chemical genetic growth profiling, strain panel (AID 1159580);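 also: tested at 20 µM; growth read once vehicle control cultures reached saturation at 30 °C; 1 = growth at the plate median or of vehicle wells; lower values mean less growth of the strain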
- statedConditions: S. cerevisiae deletion strains, growth OD, locus YIR030C, strain dcg1, active compounds read low
About 2,000 (36%) of roughly 5,500 compounds were called active. Not shown: some 18% with an inconclusive outcome. This is one part of the list.
propertyMeasured: normalized growth

Here is how some compounds turned out for normalized growth.
{"columns": ["compound", "propertyMeasured", "assayValue"],
 "data": [
  ["N[C@@H](Cc1cc(I)c(Oc2cc(I)c(O)c(I)c2)c(I)c1)C(=O)O", "normalized growth", "1.13 [resistant] (active)"],
  ["N[C@@H]1[C@@H](O)[C@H](O)[C@@H](CO)O[C@H]1O", "normalized growth", "1.01 (inactive)"],
  ["C[C@H](N)[C@H](O)c1ccccc1", "normalized growth", "0.996 (inactive)"],
  ["N#C/C(=C\\c1cccc(O)c1)C(=O)O", "normalized growth", "0.991 (inactive)"],
  ["O=c1cc(-c2ccccc2)oc2cc(O)cc(O)c12", "normalized growth", "0.944 (inactive)"],
  ["CC1(C)C(=O)C=C[C@@]2(C)C1CC(=O)[C@@]1(C)C3=CC(=O)O[C@@H](c4ccoc4)[C@]3(C)CCC12 (stereo partly drawn)", "normalized growth", "0.996 (inactive)"],
  ["NC(N)=O", "normalized growth", "0.99 (inactive)"],
  ["CC(=O)Nc1nnc(S(N)(=O)=O)s1", "normalized growth", "1.01 (inactive)"]
]}

We next turn to a different compound, shown below.
// query Let me know recorded normalized growth for `CCC(=O)Nc1ccc(Cl)c(Cl)c1` , thanks.
// result 1 (inactive)
